Source of measurements: PubChem BioAssay (NCI)

test system: SK-OV-3 ovarian; assay: NCI-60 one-dose screen, 48 h (100 = growth as untreated, 0 = no growth, -100 = all killed); conditions: 10 µM unless noted
This is part of a sample that, as a whole, favours compounds with a hit. Of some 83,000 tested, about 20% had one in any assay. Active and inactive are the calls of the source. The calls were made as follows: active = growth percent below 10; inactive = the rest.

smiles-structure	growth
C=C1C(=O)O[C@H]2[C@H]1CC/C(COC(=O)/C=C/c1cccnc1)=C\CC[C@@]1(C)O[C@@H]21	80.2% (inactive)
O=C(Nc1cccc(-c2cccc(F)c2)c1)C1CCN(Cc2cccc3cccnc23)CC1	68.3% (inactive)
Nc1c(C(=O)Nc2ccccc2)sc2nc3c(cc12)CN(C(=O)OCc1ccccc1)CC3	43.7% (inactive)
Nc1c(C(=O)Nc2ccccn2)sc2nc3c(cc12)CCCC3	42.4% (inactive)
Cc1ccn2c3c(c(C(=O)O)c2c1)C(=O)c1ccccc1C3=O	98.3% (inactive)

* * *

system: SW-620 colon; experiment: NCI-60 one-dose screen, 48 h; settings: 10 µM unless noted
The panel holds about 83,000 compounds, 20% with a hit somewhere; the sample as a whole holds those more often. The source made the active and inactive calls. How the source made its calls: active means growth percent below 10; inactive means the rest.
Classes used: 1 = active, 0 = inactive

compound	classification
COc1ccc2oc(=O)cc(-c3nc4ccc(N)cc4[nH]3)c2c1	0
Cc1ccc(SC2c3ccc(C)cc3Oc3nc(N)c(C#N)c(N)c32)cc1 (centres undefined)	0
Cc1nn(-c2ccc(-c3ccc(OC(F)(F)F)cc3)cc2)c2nc(-c3ccccc3)nc(N)c12	0
COc1ccc(C(=O)c2cc(OC)c(C)c(OC)c2)cc1OC(=O)CCl	0
C=C1C(=O)O[C@H]2[C@H]1CC/C(COC(=O)CCCCCCCC(=O)OC/C1=C/CC[C@@]3(C)O[C@H]3[C@H]3OC(=O)C(=C)[C@@H]3CC1)=C\CC[C@@]1(C)O[C@@H]21	1
O=C(NC[C@H](O)CN1CCc2ccccc2C1)c1cc(NC2COC2)ncn1	0
C=C(C)[C@@H]1CC[C@]2(C(N)=O)CC[C@]3(C)[C@H](CC[C@@H]4[C@@]5(C)CCCNC(C)(C)[C@@H]5CC[C@]43C)[C@@H]12	0
CC1CCN(CCCCCOc2ccc3oc4cc(Cl)ccc4c(=O)c3c2)CC1	0
O=C(CN1N=C(c2ccc(F)cc2)CCC1=O)Nc1nccs1	0
CCOCCc1c(O)nc(SC)[nH]c1=O	0
O=C(/C(=C\c1c(-c2ccccc2)[nH]c2ccccc12)S(=O)(=O)c1ccccc1)c1ccccc1	0
COc1ccc(/C=C(/C(=O)N2CCN(Cc3ccccc3)CC2)c2cc(OC)c(OC)c(OC)c2)cc1O	0
c1ccc(-c2n(Cc3ccc4ccccc4n3)cc[n+]2Cc2ccc3ccccc3n2)cc1	0
CCOC(=O)C1CCN(S(=O)(=O)/N=C2/NC(=O)NC2=C(Cl)Cl)CC1	1
CN(C)C1=NCCN1	0
CCOC(=O)/C=C1\SC(=Nc2ccc(C#N)cc2)N(CCN2C(=O)/C(=C/C(=O)OCC)SC2=Nc2ccc(C#N)cc2)C1=O	1
COC(=O)/C=C/c1cc(OC(C)=O)c2c(c1)C(C(=O)OC)C(c1ccc(OC(C)=O)c(OC(C)=O)c1)O2 (centres undefined)	0
C=C1C(=O)O[C@H]2[C@H]1CC/C(COC(=O)/C=C/c1cccnc1)=C\CC[C@@]1(C)O[C@@H]21	1
CC(C)NS(=O)(=O)c1cccc(-c2ccc3c4c(n(CCCN(C)C)c(=O)c3c2)-c2ccccc2C4=O)c1	0

* * *

tested on: NCI-H522 lung; assay: NCI-60 one-dose screen, 48 h (100 = growth as untreated, 0 = no growth, -100 = all killed); settings: 10 µM unless noted
About 83,000 compounds went through this panel and 20% of them were active in at least one assay; those are over-represented in the sample as a whole.

molecule	scale-unit	growth
OCCNc1nc(NCCO)nc(Nc2ccc(C3=NN(c4cc(Cl)cc(Cl)c4)C(c4ccc(C(F)(F)F)cc4)C3)cc2)n1 (centres undefined)	%	61.2
COc1ccc(C2C(c3ccccc3)C(=O)N2c2cc(OC)c(OC)c(OC)c2)cc1I (centres undefined)	%	-9.3
COCCc1n(Cc2ccc3ccccc3c2)c2ccccc2[n+]1Cc1ccc2ccccc2c1	%	-54.4
CN1CC=C(c2cc(NC(=O)Nc3ccc(Oc4ccnc(NC(=O)C5CC5)c4)c(F)c3)cc(C(F)(F)F)c2)CC1	%	-49.8
COc1ccc(-c2nnc(N3CCN(C(=O)CN4CCN(c5ccccc5)CC4)CC3)nc2-c2ccc(OC)cc2)cc1	%	14.2
O=C(O)c1cc(N=Nc2ccc(-c3ccc(N=Nc4c(S(=O)(=O)O)cc5ccc(Nc6ccccc6)cc5c4O)cc3)cc2)ccc1O	%	89.7
CCCn1c2cc(OCc3cn(-c4ccc(Br)cc4)nn3)ccc2c2ccnc(C)c21	%	76.1
COc1cc(-c2nn(-c3ccc(Br)cc3)cc2CO)ccc1O	%	72.1
COc1ccc([C@H]2[C@@H](F)C(=O)N2c2cc(OC)c(OC)c(OC)c2)cc1F	%	-8.46

* * *

System: SF-268 CNS
Assay: NCI-60 one-dose screen, 48 h
Settings: 10 µM unless noted
Experimental: Cells are grown in 96 well plates and exposed to the test compound for 48 hours. Compounds are tested at a single concentration, which is 10^-5 M for most compounds. The reported endpoint is percent growth (GI% or GIPRCNT), where numbers from 0 - 100% represent growth inhibition, and numbers from -100% - 0 represent cell death. For example, a value of 40 represents 60% growth inhibition. A value of 0 means no net growth occurred over the course of the experiment. […]
This is part of a sample that, as a whole, favours compounds with a hit. Of some 83,000 tested, about 20% had one in any assay. The source made the active and inactive calls. The calls were made as follows: active = growth percent below 10; inactive = the rest.
Classes used: class 1 = active, class 0 = inactive

molecule	classification
COc1cc(C2CC(c3ccc(Nc4nc(NCCO)nc(NCCO)n4)cc3)=NN2c2cc(Cl)cc(Cl)c2)cc(OC)c1OC (stereo not given)	class 1
O=c1c2ccccc2n(CC(O)CN2CCCC2)c2c(Br)cccc12 (stereo not given)	class 0
COc1cc(C)ccc1Oc1nc(Nc2ccc(N3CCOCC3)cc2)ncc1N=Cc1cc(C(F)(F)F)cc(C(F)(F)F)c1	class 0
O=C(/C(=C/c1ccc([N+](=O)[O-])cc1)SCc1ccc(F)cc1)c1ccc(Cl)cc1	class 0
c1ccc(-c2n(Cc3ccc4ccccc4n3)cc[n+]2Cc2ccc3ccccc3c2)cc1	class 0

* * *

system: NCI-H322M lung; experiment: NCI-60 one-dose screen, 48 h; conditions: 10 µM unless noted
The panel holds about 83,000 compounds, 20% with a hit somewhere; the sample as a whole holds those more often. Active and inactive are the calls of the source. How the source made its calls: active means growth percent below 10; inactive means the rest.
Outcome codes: active, inactive

molecule	classification
CCOC(=O)c1c(C)nc2c(c1N)/C(=C/c1cccs1)C(=O)N2Cc1ccccc1	inactive
C#C[C@@]1(O)[C@@H](CO)O[C@@H](n2cc(Br)c3c(N)ncnc32)[C@@H]1O	active
COc1ccc(C(=O)c2cc(OC)c(OC)c(OC)c2)cc1OC(=O)C(Cl)(Cl)Cl	inactive
O=C1Nc2ccccc2C12C=C(c1ccccc1)Nc1c2c(-c2ccccc2)nn1-c1ccccc1 (stereo not given)	inactive
Cc1cnc(SCc2ccc(Cl)cc2)[nH]c1=S	inactive

* * *

Collected growth values appear next to each entry.
test system: NCI-H522 lung; test: NCI-60 one-dose screen, 48 h (100 = growth as untreated, 0 = no growth, -100 = all killed); details: 10 µM unless noted
The panel holds about 83,000 compounds, 20% with a hit somewhere; the sample as a whole holds those more often.

smiles-structure	scale-unit	growth
O=C1C(Cl)=C(Nc2ccc3c(c2NC2=C(Cl)C(=O)c4ccccc4C2=O)C(=O)c2ccccc2C3=O)C(=O)c2ccccc21	%	12.4
C=C1C(=O)O[C@H]2[C@H]1CC/C(COC(=O)c1cc3ccccc3o1)=C\CC[C@@]1(C)O[C@@H]21	%	-58.2
C=C1C(=O)O[C@H]2[C@H]1CC/C(COC(=O)CCCCCCCC(=O)OC/C1=C/CC[C@@]3(C)O[C@H]3[C@H]3OC(=O)C(=C)[C@@H]3CC1)=C\CC[C@@]1(C)O[C@@H]21	%	-71.1
Cc1c(Cl)cccc1NC(=O)c1sc2nc3c(cc2c1N)CN(Cc1ccccc1)CC3	%	0.814
COc1cc(NC(=O)COc2cc(C)nc3ccc(OC)cc23)cc(OC)c1	%	75
O=c1c2ccccc2oc2ccc(OCCCCCN3CCCCCC3)cc12	%	69.9
CN1CCN(S(=O)(=O)O[C@@H]2C(=O)N(c3cc4c5ccccc5ccc4c4ccccc34)[C@H]2c2ccc(F)cn2)CC1	%	70.3
O=C(Nc1nc2ccc(C(F)(F)F)cc2s1)c1cc(Cl)ccc1O	%	-15.1
C=C1C(=O)O[C@H]2[C@H]1CC/C(COC(=O)CCCCCCCCC(=O)OC/C1=C/CC[C@@]3(C)O[C@H]3[C@H]3OC(=O)C(=C)[C@@H]3CC1)=C\CC[C@@]1(C)O[C@@H]21	%	-51.3
O=C(O)c1cn(C2CC2)c2cc(N3CCN(C(=O)CSc4nnc(-c5ccc(Cl)cc5)n4-c4ccccc4)CC3)c(F)cc2c1=O	%	72.7
O=C(/C(=C/c1ccc([N+](=O)[O-])cc1)SCc1ccc(F)cc1)c1ccc(Cl)cc1	%	-41.4
Cc1cc(O)cc(O)c1N=NC1=NCCS1	%	90.3
C#Cc1ccccc1NC(=O)c1sc2nc3c(cc2c1N)CCCCC3	%	71.5
C#C[C@@]1(O)[C@@H](CO)O[C@@H](n2cc(Cl)c3c(N)ncnc32)[C@@H]1O	%	-29
Cc1cccc(NC(=O)c2sc3nc4c(cc3c2N)CN(Cc2ccccc2)CC4)c1C	%	11.3
O=C(O)COc1ccc2c(=O)c3sc4c(=O)c5ccccc5c(=O)c4c3c(=O)c2c1	%	10.9
COc1ccc(-n2nc(C(=O)NCC(=O)O)nc2-c2ccccc2)cc1	%	82.5
O=C1CCc2ccccc2N1	%	101
